Reference source for all entries: ChEMBL document CHEMBL4385617

- experimental protocol: Inhibition of recombinant bacterial IMP-1 expressed in Escherichia coli assessed as reduction in breakdown of cephalosporin FC-5 by fluorescence method
- Parameters: species or system Bacteria
readout: IC50 (nM)
Answer format: numeric, nM implied, no suffix.

Lab note: NCc1ccc(C(=O)N[C@H]2Cc3cccc(C(=O)O)c3OB2O)cc1 gave IC50 of 1000

---

- experimental protocol: Inhibition of recombinant bacterial OXA-10 expressed in Escherichia coli assessed as reduction in breakdown of cephalosporin FC-5 by fluorescence method
- Parameters: species or system Bacteria
readout: IC50

Lab note: O=C(O)C[C@@H]1CC[C@H](NC(=O)Cc2cccs2)B(O)O1 [VABORBACTAM] gave IC50 of > 400 µM
